Hey, just so you know, these numbers are from patent US10995119B2.

- targetDesc: Aβ1-20 (Homo sapiens, UniProt P05067)
- Sequence (P05067 672-691 limits assumed): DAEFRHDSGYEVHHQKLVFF
- assayText: Hydrolysis activity against Aβ1-20
- conditionInfo: Example 3 (2), (6)
measuredMetric: hydrolysis activity against Aβ1-20

YKGAGFR = exhibited activity
YPEKPYKGSGFRMIHI [JAL 7-22 C19M] = exhibited activity
YKGSGFR [JAL (Tob1) 12-18] = exhibited activity

---

The sequences below have reported hydrolysis activity against PrP 175-189 for PrP 175-189 (Homo sapiens, UniProt P04156).
measuredMetric: hydrolysis activity against PrP 175-189

HSDCPSKGQAFRCIRI [BTG4 7-22] = exhibited activity
FPEKPCKGSGYRCIRI [BTG1 7-22] = exhibited activity
YPEKPLKGSGFRCVHI [Tob2 7-22] = exhibited activity
YPEKPSKGQAYRCIRV [BTG3 7-22] = exhibited activity
